Cited source: patent US12180207B2

molecular target: HEK-293 cells transfected with dox-inducible human wild type FGFR3 (Homo sapiens (Human), UniProt P22607); assay: FGFR3 pFGFR cell assay (ELISA); assay type: cell-based; conditions: HEK-293 dox-inducible FGFR3, 1 hour compound, 100 ng/ml FGF-acidic
Sequence (P22607 23-806): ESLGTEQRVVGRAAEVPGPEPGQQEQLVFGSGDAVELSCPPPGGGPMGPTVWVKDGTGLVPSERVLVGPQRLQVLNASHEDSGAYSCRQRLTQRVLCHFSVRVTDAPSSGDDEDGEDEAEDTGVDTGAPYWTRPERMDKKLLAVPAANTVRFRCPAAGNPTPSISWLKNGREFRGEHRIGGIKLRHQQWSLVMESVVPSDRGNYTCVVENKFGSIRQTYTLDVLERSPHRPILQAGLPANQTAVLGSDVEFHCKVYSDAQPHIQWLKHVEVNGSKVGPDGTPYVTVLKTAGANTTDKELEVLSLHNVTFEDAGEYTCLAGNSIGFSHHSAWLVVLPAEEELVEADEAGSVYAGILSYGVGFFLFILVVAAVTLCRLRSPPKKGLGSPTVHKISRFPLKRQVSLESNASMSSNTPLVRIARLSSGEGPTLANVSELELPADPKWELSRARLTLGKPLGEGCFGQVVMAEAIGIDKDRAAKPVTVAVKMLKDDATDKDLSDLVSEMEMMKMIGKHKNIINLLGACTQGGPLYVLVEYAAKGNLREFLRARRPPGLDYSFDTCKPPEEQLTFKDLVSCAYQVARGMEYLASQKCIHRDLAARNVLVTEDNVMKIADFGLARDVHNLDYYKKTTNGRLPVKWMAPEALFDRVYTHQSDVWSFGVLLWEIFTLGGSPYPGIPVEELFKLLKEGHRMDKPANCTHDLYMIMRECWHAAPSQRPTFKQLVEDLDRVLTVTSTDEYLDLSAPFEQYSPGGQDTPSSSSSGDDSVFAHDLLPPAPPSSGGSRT
Field: IC50. Provide a value for each of the molecules that follow.
One number for each entry, in nM.

Illustrative cases are given below, each with its answer.
MOLECULE: COc1cc(-c2cnn(C3CCN(CC4CN(C(=O)/C=C/CN5CCCCC5)C4)CC3)c2)cn2ncc(C#N)c12 [Example 175]
REPORTED_METRIC: IC50
READING_UNIT: nM
RESULT: 52

MOLECULE: C=CC(=O)N1CC(C(=O)N2CCC(n3ncc(-c4cc(OC)c5c(C#N)cnn5c4)c3C)CC2)C1 [Example 84]
REPORTED_METRIC: IC50
READING_UNIT: nM
RESULT: 77

MOLECULE: C=CC(=O)N1CC(OC)(C(=O)N2CCC(n3cc(-c4cc(OC)c5c(C#N)cnn5c4)cn3)CC2)C1 [Example 41]
REPORTED_METRIC: IC50
READING_UNIT: nM
RESULT: 10

MOLECULE: C=CC(=O)Nc1cccc(C(=O)N2CCC(n3cc(-c4cc(OC)c5c(C#N)cnn5c4)cn3)CC2)c1 [Example 22]
REPORTED_METRIC: IC50
READING_UNIT: nM
RESULT: 87

MOLECULE: C=CC(=O)Nc1ccc(C(=O)N2CC[C@H](n3cc(-c4cc(OC)c5c(C#N)cnn5c4)cn3)C2)cc1OC [Example 71]
REPORTED_METRIC: IC50
READING_UNIT: nM
RESULT: 35

MOLECULE: C=CC(=O)N1CC[C@H](C(=O)N2CCC(n3cc(-c4cc(OC)c5c(C#N)cnn5c4)cn3)CC2)C1 [Example 28]
REPORTED_METRIC: IC50
READING_UNIT: nM
RESULT: 285

// moving on: another record for IC50
Report IC50 for C=CC(=O)N1CC(C(=O)N2CCC(n3cc(-c4cc(OC5CCC5)c5c(C#N)cnn5c4)cn3)CC2)C1 [Example 125] please.
9

* * *

Provide the reported pIC50 of each item.
molecular target: dephosphorylated FGFR1 (SEQ ID NO: 1, amino acids 458 to 765) (Homo sapiens (Human), UniProt P11362)
Sequence (P11362 458-765): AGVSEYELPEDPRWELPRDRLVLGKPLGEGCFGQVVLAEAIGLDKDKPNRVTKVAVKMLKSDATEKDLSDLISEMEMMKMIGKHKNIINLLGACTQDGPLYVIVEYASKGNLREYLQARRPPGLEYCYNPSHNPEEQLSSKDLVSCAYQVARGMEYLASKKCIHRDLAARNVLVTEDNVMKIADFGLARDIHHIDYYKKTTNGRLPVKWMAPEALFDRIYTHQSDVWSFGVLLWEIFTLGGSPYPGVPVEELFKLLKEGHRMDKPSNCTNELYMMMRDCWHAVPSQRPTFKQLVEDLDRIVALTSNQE
One number for each entry, as −log10 of the molar value.

Answered cases to consult:
SMILES_REPRESENTATION: C=CC(=O)N1CC(C)(C(=O)N2CCC(n3ncc(-c4cc(OC)c5c(C#N)cnn5c4)c3C)CC2)C1
pIC50: 6.47
--
SMILES_REPRESENTATION: C=CC(=O)N1CC(C(=O)N2CCC(n3cc(-c4cc(OC5CCC5)c5c(C#N)cnn5c4)cn3)CC2)C1
pIC50: 7.89
--
SMILES_REPRESENTATION: C=CS(=O)(=O)N[C@H]1CC[C@H](C(=O)N2CCC(n3cc(-c4cc(OC)c5c(C#N)cnn5c4)cn3)CC2)C1
pIC50: 7.43

Value lookup for pIC50; key = `COc1cc(-c2cnn(C3CCN(C(=O)C4CN(C(=O)C#CCO)C4)CC3)c2)cn2ncc(C#N)c12`
7.66

* * *

target: HEK-293 cells transfected with dox-inducible human wild type FGFR1 (Homo sapiens (Human)); experiment: FGFR1 pERK cell assay; assay type: cell-based; settings: HEK-293 dox-inducible FGFR1, 1 hour compound, 100 ng/ml FGF-acidic; maximum concentration 5 μM
Sequence (P11362 22-822): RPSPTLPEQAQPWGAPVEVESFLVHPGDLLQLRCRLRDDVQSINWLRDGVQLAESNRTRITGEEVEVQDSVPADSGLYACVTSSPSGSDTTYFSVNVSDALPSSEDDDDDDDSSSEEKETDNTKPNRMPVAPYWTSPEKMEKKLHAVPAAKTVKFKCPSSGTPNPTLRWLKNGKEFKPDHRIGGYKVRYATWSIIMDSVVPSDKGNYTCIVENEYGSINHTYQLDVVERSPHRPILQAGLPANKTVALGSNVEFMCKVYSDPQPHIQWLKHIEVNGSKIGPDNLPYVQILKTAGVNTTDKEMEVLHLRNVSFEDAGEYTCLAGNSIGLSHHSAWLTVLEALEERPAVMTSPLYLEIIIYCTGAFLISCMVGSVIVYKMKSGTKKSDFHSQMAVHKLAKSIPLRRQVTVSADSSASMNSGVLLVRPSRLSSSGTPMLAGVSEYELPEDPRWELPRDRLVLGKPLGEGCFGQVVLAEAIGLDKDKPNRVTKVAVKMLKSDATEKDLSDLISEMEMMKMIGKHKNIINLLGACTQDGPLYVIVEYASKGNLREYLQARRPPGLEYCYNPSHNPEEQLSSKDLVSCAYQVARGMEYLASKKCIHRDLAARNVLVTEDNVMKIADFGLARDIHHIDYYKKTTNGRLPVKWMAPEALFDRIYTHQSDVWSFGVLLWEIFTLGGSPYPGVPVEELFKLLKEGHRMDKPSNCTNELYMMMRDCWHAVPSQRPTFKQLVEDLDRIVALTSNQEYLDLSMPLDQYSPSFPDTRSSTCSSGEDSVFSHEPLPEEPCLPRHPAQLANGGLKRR
REPORTED_METRIC: IC50 (µM)
Numbers only, in µM.

Solved entries (count: 3):
SMILES_REPRESENTATION: C=CC(=O)N1CC(C(=O)N2CCC(n3cc(-c4cc(OC)c5c(C#N)cnn5c4)cn3)CC2)C1
READING_UNIT: µM
RESULT: 0.363
//
SMILES_REPRESENTATION: C=CC(=O)N1CC(F)(C(=O)N2CCC(n3ncc(-c4cc(OC)c5c(C#N)cnn5c4)c3CC)CC2)C1
READING_UNIT: µM
RESULT: 2.1
//
SMILES_REPRESENTATION: COc1cc(-c2cnn(C3CCN(C(=O)C4CN(C(=O)/C=C/CF)C4)CC3)c2)cn2ncc(C#N)c12
READING_UNIT: µM
RESULT: 0.769

Kindly consider the entry below.
What IC50 value was documented for this compound, `COc1cc(-c2cnn(C3CN(C(=O)C4(F)CN(C(=O)/C=C/CN(C)C)C4)C3)c2C)cn2ncc(C#N)c12` ?
3.28

* * *

For each of the molecules below, state its pIC50.
molecular target: recombinant human FGFR3 (amino acids R397-T806) (Homo sapiens (Human), UniProt P22607); test: FGFR3 enzyme activity assay (LanthaScreen TR-FRET); settings: 25 μM ATP, 10 min incubation at 22° C., average of multiple determinations if made, read-out: FGFR3 Enz FRET IC50
Sequence (P22607 397-806): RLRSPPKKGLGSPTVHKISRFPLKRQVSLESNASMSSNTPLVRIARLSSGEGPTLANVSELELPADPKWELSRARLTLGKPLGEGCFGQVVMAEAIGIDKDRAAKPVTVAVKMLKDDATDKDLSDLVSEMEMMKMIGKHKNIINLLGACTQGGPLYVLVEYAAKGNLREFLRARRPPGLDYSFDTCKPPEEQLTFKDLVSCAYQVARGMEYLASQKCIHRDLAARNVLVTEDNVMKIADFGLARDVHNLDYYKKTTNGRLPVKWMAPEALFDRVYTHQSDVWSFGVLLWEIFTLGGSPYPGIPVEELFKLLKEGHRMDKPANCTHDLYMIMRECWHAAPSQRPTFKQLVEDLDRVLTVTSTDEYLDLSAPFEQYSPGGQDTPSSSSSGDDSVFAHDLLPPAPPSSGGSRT
Numbers only, as −log10 of the molar value.

Worked cases, answers included:
MOLECULE: C=CC(=O)NC1CCC(NC(=O)c2ccc(-c3cc(OC)c4c(C#N)cnn4c3)cc2)CC1 (stereo not shown) [Example 167]
ASSAY_TARGET: recombinant human FGFR3 (amino acids R397-T806) (Homo sapiens (Human), UniProt P22607)
REPORTED_METRIC: pIC50
RESULT: 7.77

MOLECULE: C=CC(=O)N1CC[C@H](C(=O)N2CC(n3cc(-c4cc(OC)c5c(C#N)cnn5c4)cn3)C2)C1 [Example 76]
ASSAY_TARGET: recombinant human FGFR3 (amino acids R397-T806) (Homo sapiens (Human), UniProt P22607)
REPORTED_METRIC: pIC50
RESULT: 7.89

MOLECULE: COc1cc(-c2cnn(C3CCN(CC4CN(C(=O)/C=C/CN(C)C)C4)CC3)c2)cn2ncc(C#N)c12 [Example 146]
ASSAY_TARGET: recombinant human FGFR3 (amino acids R397-T806) (Homo sapiens (Human), UniProt P22607)
REPORTED_METRIC: pIC50
RESULT: 8.70

MOLECULE: C=CC(=O)NC1C2CC1C2C(=O)N1CCC(n2cc(-c3cc(OC)c4c(C#N)cnn4c3)cn2)CC1 (stereo not shown) [Example 46]
ASSAY_TARGET: recombinant human FGFR3 (amino acids R397-T806) (Homo sapiens (Human), UniProt P22607)
REPORTED_METRIC: pIC50
RESULT: 8.52

MOLECULE: C=CC(=O)N1CCC(C(=O)N2CCC(n3cc(-c4cc(OC)c5c(C#N)cnn5c4)cn3)CC2)C(F)(F)C1 (stereo not shown) [Example 15]
ASSAY_TARGET: recombinant human FGFR3 (amino acids R397-T806) (Homo sapiens (Human), UniProt P22607)
REPORTED_METRIC: pIC50
RESULT: 8.70

MOLECULE: C=CC(=O)Nc1ccc(C(=O)N2CCC(n3cc(-c4cc(OC)c5c(C#N)cnn5c4)cn3)CC2)cc1 [Example 177]
ASSAY_TARGET: recombinant human FGFR3 (amino acids R397-T806) (Homo sapiens (Human), UniProt P22607)
REPORTED_METRIC: pIC50
RESULT: 8.10

# input molecule: C=CS(=O)(=O)N1CCC(C(=O)N2CCC(n3cc(-c4cc(OC)c5c(C#N)cnn5c4)cn3)CC2)CC1 [Example 186] ; wanted: its pIC50
8.30

* * *

A set of molecules tested on dephosphorylated FGFR1 (SEQ ID NO: 1, amino acids 458 to 765) (Homo sapiens (Human)), with measured log10 IC50:
Plainly stated, the numbers are log10 of IC50 given in nM.

Examples with their reported log10 IC50 follow.
MOLECULE: C=CC(=O)N1CC(C(=O)N2CCC(c3ccc(-c4cc(OC)c5c(C#N)cnn5c4)cc3)CC2)C1
ASSAY_TARGET: dephosphorylated FGFR1 (SEQ ID NO: 1, amino acids 458 to 765) (Homo sapiens (Human))
REPORTED_METRIC: log10 IC50
RESULT: 1.62

MOLECULE: C=CC(=O)N1CCC(C#N)(C(=O)N2CCC(n3cc(-c4cc(OC)c5c(C#N)cnn5c4)cn3)CC2)C1 (stereo not shown)
ASSAY_TARGET: dephosphorylated FGFR1 (SEQ ID NO: 1, amino acids 458 to 765) (Homo sapiens (Human))
REPORTED_METRIC: log10 IC50
RESULT: 1.41

MOLECULE: C=CC(=O)N1CC(C(=O)N2CCC(n3cc(-c4cc(OC)c5c(C#N)cnn5c4)c(C)n3)CC2)C1
ASSAY_TARGET: dephosphorylated FGFR1 (SEQ ID NO: 1, amino acids 458 to 765) (Homo sapiens (Human))
REPORTED_METRIC: log10 IC50
RESULT: 2.54

MOLECULE: COc1cc(-c2cnn(C3CCN(CC4(OC)CN(C(=O)/C=C/CN(C)C)C4)CC3)c2C)cn2ncc(Cl)c12
ASSAY_TARGET: dephosphorylated FGFR1 (SEQ ID NO: 1, amino acids 458 to 765) (Homo sapiens (Human))
REPORTED_METRIC: log10 IC50
RESULT: 2.56

MOLECULE: C=CC(=O)N1CC[C@@H](C(=O)N2CC[C@H](n3cc(-c4cc(OC)c5c(C#N)cnn5c4)cn3)C2)C1
ASSAY_TARGET: dephosphorylated FGFR1 (SEQ ID NO: 1, amino acids 458 to 765) (Homo sapiens (Human))
REPORTED_METRIC: log10 IC50
RESULT: 1.56

Items follow; give log10 IC50 for each.
1. C=CC(=O)N1C2CC1CN(C(=O)N1CCC(n3cc(-c4cc(OC)c5c(C#N)cnn5c4)cn3)CC1)C2
2. C=CC(=O)Nc1cccc(C(=O)N2CCC[C@@H](n3cc(-c4cc(OC)c5c(C#N)cnn5c4)cn3)C2)c1

1: 1.70; 2: 2.49
